Biological target: T1, Human VEGFA165 (human, UniProt P15692-4 27-191)
T1 construct: treated as the same molecule; also called antigen VEGFA
T1 sequence (P15692 other isoform, or with tags, fused parts or gaps limits assumed): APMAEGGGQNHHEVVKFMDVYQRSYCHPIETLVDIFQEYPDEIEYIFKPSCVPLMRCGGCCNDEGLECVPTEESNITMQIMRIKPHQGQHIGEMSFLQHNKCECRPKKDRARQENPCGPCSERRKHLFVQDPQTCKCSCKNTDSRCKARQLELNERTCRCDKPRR
Experiment: competition ELISA on coated VEGFA, competitor VEGFR2-ECD-Fc 1 nM
pIC50: −log10 of the molar value.
test.readout: pIC50

# example entries with known answers
Input line: pIC50 lookup needed for V15 (VHH, Purified with C-terminal GGGGS-6×His; also called candidate antibody V15) VHH: QLQLVESGGGSVQPGGSLRLSCEVSGRTFASYTMGWFRQAPGKEREFVVAISKGGYKYDSVSLEARFTISKDNTKNTVYLQMNSLKPEDTAVYYCAGTRAYGSSRLRLAETYEYWGQGTQVTVSS , thanks.
Output line: 8.41

Input line: Can you share its pIC50? I mean this binder: V1 (VHH, also called candidate antibody V1; antibody V1) VHH: QLQLVESGGGSVQPGGSLRLSCEVSGRTFSSYTMGWFRQAPGKEREFVVAISKGGYKYDSVSLEARFTISKDNTKNTVYLQMNSLKPEDTAVYYCAATRAYGSSRLRLADTYEYWGQGTQVTVSS
Output line: 8.25

P. V40 (VHH, Purified with C-terminal GGGGS-6×His) VHH: QLQLVESGGGSVQPGGSLRLSCEVSGRTFTSYTMGWFRQAPGKEREFVVAISKGGYKYNAVSLEARFTISKDNTKNTVYLQMNSLKPEDTAVYYCAGTRAYGSSRLRLAKTYEYWGQGTQVTVSS
Q. V17 (VHH, Purified with C-terminal GGGGS-6×His) VHH: QLQLVESGGGSVQPGGSLRLSCEVSGRTFSSYTMGWFRQAPGKEREFVVAISKGGYKYDTVSLEARFTISKDNTKNTVYLQMNSLKPEDTAVYYCAATRAYGSSRLRLAKTYEYWGQGTQVTVSS
Input line: From the items above, decide which of P and Q has the lower pIC50 reading. API: response body contains the label of the selected item.
Output line: Q
(Q: 7.79, P: 8.13)
